// provenance: PubChem BioAssay AID1645866

target: Ubiquitin carboxyl-terminal hydrolase 28 (Homo sapiens) (UniProt Q96RU2); assay: Concentration-response biochemical assay confirming initial hits as inhibitors of ubiquitin-specific protease 28 (AID 1645866); conditions: purified USP28, ubiquitin-rhodamine fluorescence, 30 min
Sequence (Q96RU2 whole entry, looked up): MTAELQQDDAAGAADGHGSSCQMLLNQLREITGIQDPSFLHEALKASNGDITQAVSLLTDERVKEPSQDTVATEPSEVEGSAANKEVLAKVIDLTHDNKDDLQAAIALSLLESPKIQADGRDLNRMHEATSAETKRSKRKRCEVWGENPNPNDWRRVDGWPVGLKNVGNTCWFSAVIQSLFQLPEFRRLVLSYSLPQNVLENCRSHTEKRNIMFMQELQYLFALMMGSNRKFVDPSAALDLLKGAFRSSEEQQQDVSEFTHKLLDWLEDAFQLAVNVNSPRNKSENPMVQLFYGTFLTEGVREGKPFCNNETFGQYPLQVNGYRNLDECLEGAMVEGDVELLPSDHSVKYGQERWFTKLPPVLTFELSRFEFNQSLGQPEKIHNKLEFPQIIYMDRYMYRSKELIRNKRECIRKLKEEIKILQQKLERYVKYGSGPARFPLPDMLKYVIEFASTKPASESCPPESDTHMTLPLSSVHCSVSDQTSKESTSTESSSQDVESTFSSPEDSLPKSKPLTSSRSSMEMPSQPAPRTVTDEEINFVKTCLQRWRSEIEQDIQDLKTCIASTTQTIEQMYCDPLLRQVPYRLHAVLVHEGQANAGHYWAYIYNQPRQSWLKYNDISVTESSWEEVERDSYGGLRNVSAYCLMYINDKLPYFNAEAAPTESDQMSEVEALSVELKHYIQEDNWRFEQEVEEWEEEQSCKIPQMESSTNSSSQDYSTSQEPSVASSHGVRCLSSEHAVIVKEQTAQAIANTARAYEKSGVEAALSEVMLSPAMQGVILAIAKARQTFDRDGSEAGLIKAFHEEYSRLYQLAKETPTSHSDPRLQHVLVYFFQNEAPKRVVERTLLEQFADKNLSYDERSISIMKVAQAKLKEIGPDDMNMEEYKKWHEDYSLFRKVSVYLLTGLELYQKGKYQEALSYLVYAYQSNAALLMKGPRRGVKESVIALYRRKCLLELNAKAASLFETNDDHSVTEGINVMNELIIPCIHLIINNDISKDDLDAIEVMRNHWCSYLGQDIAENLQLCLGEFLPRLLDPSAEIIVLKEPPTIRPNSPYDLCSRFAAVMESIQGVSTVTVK
Calls of active or inactive are those of the source.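 The calls were made as follows: active = in confirmatory dose-response testing, peak deubiquitinase inhibition of 30% or more; inactive = the rest.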
Pick one: active, inactive

Reference set, count: 10
O=C(Cc1c[nH]c2ccccc12)Nc1nc2ccccc2s1 :: active
Cc1nn(-c2ccc(Cl)cc2)c2[nH]c(=O)c(CNCC3CCCO3)cc12 (stereo not drawn) :: inactive
O=C(Nc1ccc(SCc2nnc(-c3ccccc3)o2)cc1)C1CC1 :: active
COc1ccc(OC)c(-c2cc(C(=O)Nc3c(C)nn(Cc4ccccc4)c3C)no2)c1 :: active
Cc1nn(Cc2ccccc2)c(Cl)c1C(=O)NC1CCCc2ccccc21 (stereo not drawn) :: inactive
CC1=C(Cn2c3cccc(=O)c-3nc3ccccc32)CCC(C)(C)C1 :: active
O=C1c2c(O)cccc2C2(Oc3cccc4cccc(c34)O2)C2OC12 (stereo not drawn) :: active
CC(C)(C)C(=O)C1C2C(=O)N(c3ccc4c(c3)OCO4)C(=O)C2C2c3ccccc3C=CN12 (stereo not drawn) :: inactive
Cc1ccc(S(=O)(=O)c2cnc(SCC(=O)Nc3ccc(Cl)cc3)nc2N)cc1C :: active
O=C(CCCCn1c(=O)c2ccccc2n(CC(=O)Nc2ccc(F)c(Cl)c2)c1=O)NCc1ccco1 :: inactive

Shifting focus to the compound that follows.
Test call, this compound: COc1ccc2nc(Nc3ncc4c(n3)CCCC4=O)nc(C)c2c1
inactive

* * *

biological target: Ubiquitin carboxyl-terminal hydrolase 28 (Homo sapiens)
experimental readout: IC50

Use the examples below as a reference point.
COc1ccc(NC(=O)COc2ccc3ccc(=O)oc3c2)cc1 :: 31.1 µM
CCc1nc(SCC(=O)Nc2ccccc2Cl)c2oc3ccccc3c2n1 :: 0.37 µM

Turning now to a further molecule:
For the molecule Cc1oc(-c2ccc(C(=O)NCC3COCCO3)cc2)nc1CN1CCc2ccccc21 (stereo not drawn) , what IC50 is on record?
38.8 µM

* * *

target: Ubiquitin carboxyl-terminal hydrolase 28 (Homo sapiens) (UniProt Q96RU2); assay: Concentration-response biochemical assay confirming initial hits as inhibitors of ubiquitin-specific protease 28 (AID 1645866); conditions: purified USP28, ubiquitin-rhodamine fluorescence, 30 min
The source made the active and inactive calls.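 How the source made its calls: active means in confirmatory dose-response testing, peak deubiquitinase inhibition of 30% or more; inactive means the rest.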
Pick one: active, inactive

Reference set, count: 4
CCN(CC)C(=O)CN1CCCC(c2ncncc2-c2cc(C)no2)C1 (stereo unspecified) :: inactive
COc1ccc(-c2cc(-c3nnc4n3CCCCC4)n(-c3ccccc3)n2)cc1 :: active
O=C(CC1C(=O)N(Cc2ccccc2)c2nc3ccccc3n21)NCCc1ccccc1 (stereo unspecified) :: active
Cc1nn(CC(=O)NCc2ccccc2F)c2ccccc12 :: inactive

Shifting focus to the compound that follows.
Test call, this compound: COc1ccccc1NS(=O)(=O)c1cccc(NC(=O)CCc2nc3ccccc3s2)c1
active

* * *

target: Ubiquitin carboxyl-terminal hydrolase 28 (Homo sapiens); assay: Concentration-response biochemical assay confirming initial hits as inhibitors of ubiquitin-specific protease 28 (AID 1645866); settings: purified USP28, ubiquitin-rhodamine fluorescence, 30 min
The source made the active and inactive calls.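 Rule for the calls: active = in confirmatory dose-response testing, peak deubiquitinase inhibition of 30% or more; inactive = the rest.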
Pick one: 1 (active), -1 (inactive)

Reference set, count: 5
Cc1ccc2c(Nc3ccc(CC(=O)O)cc3)c(C(=O)N3CCCC3)cnc2n1 :: -1
Cc1ncc(CO)c2c1Oc1nc(-c3cccc(Cl)c3)nc(SCC(=O)N3CCCCC3)c1C2 :: -1
COc1ccccc1C(=O)N1CCc2[nH]c3ccc(F)cc3c2C1 :: -1
O=C(NC1CCS(=O)(=O)C1)c1ccc(N2CCC(Cc3ccccc3)CC2)nn1 (stereo not given) :: -1
O=C(Nc1ccc2ccccc2n1)c1ccc(Cl)cc1 :: 1

Test call, this compound: Cc1ccc(CNC(=O)CCCn2c(=O)c3sccc3n(CC(=O)OCc3ccccc3)c2=O)cc1
1

Test call, this compound: O=C(CCCc1c[nH]c2ccccc12)Nc1ccc2c(c1)OCCO2
1

Test call, this compound: COc1cc(NC(=O)c2cc(-c3ccncc3)n(-c3ccc(F)cc3)n2)cc(OC)c1
1

Test call, this compound: CN1C(=O)[C@@]23C[C@]4([C@@]56C[C@]78SS[C@](CO)(C(=O)N7[C@@H]5Nc5ccccc56)N(C)C8=O)c5ccccc5N[C@@H]4N2C(=O)[C@]1(CO)SS3
-1

Test call, this compound: Cc1cccc(C(=O)NCc2nc3ccccc3n2Cc2ccccc2C)c1
-1
